Target: VIM-1 (Pseudomonas aeruginosa (strain ATCC 15692 / DSM 22644 / CIP 104116 / JCM 14847 / LMG 12228 / 1C / PRS 101 / PAO1), UniProt A0A0F7KYQ8)
Assay: Enzyme activity: determination of IC50, fluorescence assay with CCF2-FA substrate (VIM-1)
Format: biochemical
Settings: VIM-1 IC50, VIM-1 enzyme, CCF2-FA fluorescence assay
Measured pIC50, listed per entry for reference.
Units for pIC50: none; it is -log10 of a concentration expressed in mol/L.

Use the examples below as a reference point.
[[record]]
compound = "NS(=O)(=O)c1cccc(-c2ccc(CN3CCC(CO)C3)cc2)c1-c1nnn[nH]1 (stereo in doubt)"
reported_result = 6.40

[[record]]
compound = "NS(=O)(=O)c1cccc(-c2ccc(C3(O)CNC3)cc2)c1-c1nn[nH]n1"
reported_result = 7.48

[[record]]
compound = "NS(=O)(=O)c1c(-c2ccc(C3CCNCC3)cc2)ccc(-c2ccc(C3CCNCC3)cc2)c1-c1nn[nH]n1"
reported_result = 7.29


Now for the compound whose pIC50 we want.
Lookup: Please look at this compound and report its pIC50: Cc1ccc(-c2cccc(S(N)(=O)=O)c2-c2nnn[nH]2)cn1
Found: 6.96

----------
Molecular target: NDM-1 (Klebsiella pneumoniae, UniProt C7C422)
Sequence (C7C422 whole entry, looked up, species assumed): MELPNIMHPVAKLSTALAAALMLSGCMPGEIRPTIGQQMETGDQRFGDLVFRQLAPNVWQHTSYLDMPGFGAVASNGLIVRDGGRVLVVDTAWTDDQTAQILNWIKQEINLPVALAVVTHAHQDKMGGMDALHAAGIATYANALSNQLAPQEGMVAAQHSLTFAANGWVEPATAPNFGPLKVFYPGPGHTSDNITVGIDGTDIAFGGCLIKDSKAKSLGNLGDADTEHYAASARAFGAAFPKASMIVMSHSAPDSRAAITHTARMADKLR
Experiment: biochemical
Type: biochemical
Conditions: fluorescence assay with CCF2-FA substrate; read-out: NDM-1 IC50
Measured IC50, listed per entry for reference.

[[record]]
compound = "NS(=O)(=O)c1cccc(-c2ccc(O)nc2)c1-c1nn[nH]n1"
reported_result = "81.8 nM"


Lookup: Please look at this compound and report its IC50: N=C(N)N1CCC([C@H]2CC[C@H](c3ccc(C(F)(F)F)c(S(N)(=O)=O)c3-c3nnn[nH]3)CC2)CC1
Found: 0.157 nM

Lookup: Please look at this compound and report its IC50: Cc1ccccc1Cc1cccc(S(N)(=O)=O)c1-c1nnn[nH]1
Found: 3 nM

Lookup: Please look at this compound and report its IC50: NC(=O)c1ccc(-c2cccc(S(N)(=O)=O)c2-c2nn[nH]n2)cc1
Found: 5.96 nM

Lookup: Please look at this compound and report its IC50: NS(=O)(=O)c1cccc(-c2ccc(C(=O)N3CCC(O)CC3)cc2)c1-c1nn[nH]n1
Found: 1.71 nM

Lookup: Please look at this compound and report its IC50: NS(=O)(=O)c1c(C(F)(F)F)ccc(-c2ccc(C3CN(CC4CCNC4)C3)cc2)c1-c1nnn[nH]1 (stereo not shown)
Found: 4.38 nM

----------
Biological target: UniProt:C7C422
Experiment: biochemical
Type: biochemical
Conditions: NDM-1 enzyme, CCF2-FA fluorescence assay; read-out: NDM-1 IC50
Readout Type: IC50
# answer = value followed by unit

Use the examples below as a reference point.
[[record]]
compound = "N=C(N)N1CC(c2ccc(-c3ccc(C(F)(F)F)c(S(N)(=O)=O)c3-c3nn[nH]n3)cc2)C1 [Example 434]"
readout_type = "IC50"
reported_result = "1.78 nM"

[[record]]
compound = "NS(=O)(=O)c1cccc(-c2ccc(N3CCCCC3)nc2)c1-c1nn[nH]n1 [Example 322]"
readout_type = "IC50"
reported_result = "36.5 nM"


Lookup: Please look at this compound and report its IC50: NC(=O)C1CN(Cc2ccc(-c3cccc(S(N)(=O)=O)c3-c3nnn[nH]3)cc2)C1 [Example 362]
Found: 11.3 nM
